B1: C22orf31 (parent)
chain: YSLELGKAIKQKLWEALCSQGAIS

variants of: B1; assay: protein stability index of a GFP-peptide fusion (GPS, HEK-293T) (PSI 1-6); higher = more stable; conditions: c terminus: a fixed tail appended;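 also: lentivirally expressed fusions sorted by FACS into six bins by GFP to DsRed ratio, PSI derived from sequencing read proportions per bin multiplied by bin number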
Tick T if protein stability index is 2 or greater. Tick F if protein stability index is less than 2.

Sample answers from the record:
Task: Kindly determine if protein stability index recorded for E15T is above or exactly 2.
Result: F

Task: Kindly determine if protein stability index recorded for Q11I is above or exactly 2.
Result: F

Task: Reported protein stability index at or above 2? A22K
Result: T

Task: Form field: protein stability index at least 2? Entry: L17V
Result: T

Task: Entry L17Y : is its protein stability index no less than 2?
Result: T

Task: Could you please find out whether C18F has protein stability index that meets 2 or exceeds it?
Result: F

Task: protein stability index >= 2 for L17H ?
Result: F

Task: Determine whether this variant has protein stability index no lower than 2: E4H
Result: T

***
Task: Reported protein stability index at or above 2? Y1V
Result: T

Task: Hi team, for Q11F , is the recorded protein stability index at or above 2?
Result: T

Task: Confirm if protein stability index reported for the variant S2N is 2 or above.
Result: T

Task: Test whether the variant E15R records protein stability index of 2 or higher.
Result: T

Task: Item G6S with protein stability index of 2 or above?
Result: F

Task: Hi, just wondering whether C18S shows protein stability index of 2 or higher.
Result: F

Task: Can C18D be said to have protein stability index at or above 2?
Result: T

Task: Evaluate A8G : protein stability index at minimum 2?
Result: F

Task: Please check the record E4Y and state if its protein stability index is at or above 2.
Result: T

Task: Textbook exercise: given the entry W14Y , state whether its protein stability index is greater than or equal to 2.
Result: F

Task: Assess whether reported protein stability index for E4D sits at 2 or higher.
Result: T

Reference source for all entries: the supplement of paper PMC10567573
